Parameter growth inhibition: see the listing below.
# test.description: NCI Yeast Anticancer Drug Screen. Data for the sgs1 mgt1 strain (AID 161);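 also: 0% = growth of cultures given vehicle only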
# experimental.context: S. cerevisiae sgs1 mgt1 strain, at 50.0 µM, active compounds read high
The panel holds about 79,000 compounds, 15% with a hit somewhere; the sample as a whole holds those more often. Active and inactive are the calls of the source. Rule as the data show it: active = growth inhibition above about 70%; inactive = the rest.
measured.attribute: growth inhibition

INSERT INTO results (compound, result) VALUES
  ('Cc1ccc(C(=O)c2ccccc2Cc2cccc3ccccc23)c(C)c1', '1.2% (inactive)'),
  ('C(=Nc1ccc(N2CCOCC2)cc1)c1ccc2c(c1)OCO2', '-15.2% (inactive)'),
  ('Cc1ccc(S(=O)(=O)Nc2ccccc2-c2nc3ccc([N+](=O)[O-])cc3c(=O)o2)cc1', '22.1% (inactive)'),
  ('CCOC(=O)c1ccc2c3c(ccc([N+](=O)[O-])c13)CC2', '-14% (inactive)'),
  ('CCCCC(CN(C)C)C(=O)/C=C/c1ccccc1 (configuration not stated)', '32.9% (inactive)'),
  ('NC(=O)c1ccc2c(c1)-c1nc-2nc2[n-]c(nc3nc(nc4[n-]c(n1)c1ccc(C(N)=O)cc41)-c1ccc(C(N)=O)cc1-3)c1ccc(C(N)=O)cc21.[Co+2]', '1.8% (inactive)'),
  ('COc1ccccc1NC(=O)C1=C(C)NC(C)=C(C(=O)Nc2ccccc2OC)C1c1ccco1', '20.4% (inactive)'),
  ('Cn1ccnc1CCc1ccc(F)cc1F', '-2.75% (inactive)'),
  ('C[CH2][Sn]([CH2]C)([O]C(=O)c1ccc(F)cc1)[O][Sn]([CH2]C)([CH2]C)[O]C(=O)c1ccc(F)cc1', '-16.4% (inactive)'),
  ('CCCOC(=O)CNC(=O)OC(C)(C)C', '1.15% (inactive)'),
  ('CC1(C)C/C(=C/c2ccccc2)C(=O)O1', '-3.45% (inactive)'),
  ('CC(C)=CCOc1cc(NC(=S)c2ccsc2C)ccc1Cl', '-34.1% (inactive)');

Data origin, for the record: PubChem BioAssay (NCI)
